System: Plasmodium vivax liver stage (primary human hepatocyte culture)
Details: P. vivax isolate: Pv360; hepatocyte lot: UBV; assay mode: Radical Cure, 8-day (treatment from day 5 post-infection)
Measured EC50 schizont net growth area by item
Hi! Could you send only the number? It should be in nM, unit omitted.

compound	units	EC50 schizont net growth area
CC1CC(C)C(=O)C(C(O)CC2CC(=O)NC(=O)C2)C1 (centres undefined) [Cycloheximide]	nM	85.6

From here, focus on the item given below.
Incoming: Given the entry Cc1nc(Nc2ncc(N3CCN(C)C(C)C3)c(Nc3cc(C)n(C)n3)n2)cc(C2CC2)c1F (centres undefined) , report its measured EC50 schizont net growth area.
Outgoing: 381

====

Measured EC50 asexual blood stage growth by item
Tested on: Plasmodium cynomolgi Berok K4 asexual blood stage
Experiment: EC50 asexual blood stage growth
Settings: serum: 20% M. fascicularis serum
Hi! Could you send only the number? It should be in nM, unit omitted.

Incoming: Given the entry Cc1cc(Nc2ccc(C(F)(F)F)nc2)n2nc(C(C)(F)F)nc2n1 [DSM421] , report its measured EC50 asexual blood stage growth.
Outgoing: 59.5

Incoming: Cool, now CS(=O)(=O)c1ccc(-c2cnc(N)c(-c3ccc(C(F)(F)F)nc3)c2)cc1 [MMV048]
Outgoing: 49

Incoming: Cool, now CC1Cc2c([nH]c3cc(Cl)c(F)cc23)C2(N1)C(=O)Nc1ccc(Cl)cc12 (stereo not drawn) [Cipargamin]
Outgoing: 15.4

Incoming: Cool, now CC1CCC2C(C)C(N3CCS(=O)(=O)CC3)OC3OC4(C)CCC1C32OO4 (stereo not drawn) [Artemisone]
Outgoing: 0.6

Incoming: Cool, now O=CN(O)CCCP(=O)(O)O [Fosmidomycin]
Outgoing: 6690

Incoming: Cool, now CC1CCC2C(C)C(OC(=O)CCC(=O)O)OC3OC4(C)CCC1C32OO4 (stereo not drawn) [Artesunate]
Outgoing: 3

Incoming: Cool, now CN(C)c1ccc2nc3ccc(=[N+](C)C)cc-3sc2c1 [Methylene blue]
Outgoing: 6

====

Measured CC20 hepatic nuclei by item
Test system: primary human hepatocytes
Experiment: CC20 hepatic nuclei (20% reduction); higher = less toxic
Settings: P. vivax isolate: Pv728; hepatocyte lot: BGW; assay mode: Radical Cure, 8-day (treatment from day 5 post-infection)

molecule	CC20 hepatic nuclei
CCn1ncc2c(NC3CCOCC3)c(CNC(=O)c3ccnn3C)c(C)nc21	> 50 µM
c1cc(C2CCC3(CC2)OOC2(O3)C3CC4CC(C3)CC2C4)ccc1OCCN1CCOCC1 (configuration not stated)	> 16.7 µM
N=c1n(CCN2CCCCC2)c2ccccc2n1CC(O)c1cccc(Br)c1 (configuration not stated)	41.8 µM
O=C(O)c1cn(C2CC2)c2cc(N3CCNCC3)c(F)cc2c1=O	> 10 µM
COc1ccc(C(=O)C(CCC(CNC(C)(C)C)C(=O)c2ccc(OC)cc2)CNC(C)(C)C)cc1 (configuration not stated)	40.8 µM

Incoming: Given the entry CC1(CN2CCC(n3c(O)nc4ccccc43)CC2)OCc2ccccc2-n2cccc21 (configuration not stated) , report its measured CC20 hepatic nuclei.
Outgoing: > 10 µM

Incoming: Cool, now O=C(Nc1cccnn1)N1CCC(=Cc2cccc(Oc3ccc(C(F)(F)F)cn3)c2)CC1
Outgoing: > 10 µM

====

Test system: Plasmodium cynomolgi Berok K4 asexual blood stage
Test: EC50 asexual blood stage growth
Conditions: serum: 20% M. fascicularis serum
Classification scheme (EC50 asexual blood stage growth): lo: < 0.1 µM; mid: ≥ 0.1 µM and < 0.6 µM; hi: ≥ 0.6 µM

molecule	label
Cc1c(CCO)sc[n+]1CCCCCCCCCCCC[n+]1csc(CCO)c1C [Albitiazolium]	mid

Incoming: Which class is correct for the following molecule? CC1CCC2C(C)C(=O)OC3OC4(C)CCC1C32OO4 (stereo unspecified) [Artemisinin]
Outgoing: lo

Incoming: Cool, now C=C[C@H]1C[N@@]2CC[C@H]1C[C@H]2[C@H](O)c1ccnc2ccc(OC)cc12 [Quinine]
Outgoing: mid

Incoming: Cool, now CC1(C)c2nc(-c3ccc(F)cc3)c(Nc3ccc(F)cc3)n2CCN1C(=O)CN [KAF-156]
Outgoing: lo

Incoming: Cool, now COc1cc(NC(C)CCCN)c2nccc(C)c2c1Oc1ccc(Cl)c(Cl)c1 (stereo unspecified) [NPC-1161B]
Outgoing: hi

Incoming: Cool, now CC(=O)N(O)CCCCCNC(=O)CCC(=O)N(O)CCCCCNC(=O)CCC(=O)N(O)CCCCCN [Deferoxamine]
Outgoing: hi

Incoming: Cool, now CS(=O)(=O)c1ccc(-c2cnc(N)c(-c3ccc(C(F)(F)F)nc3)n2)cc1
Outgoing: hi

Incoming: Cool, now N=C(N)c1ccc(-c2ccc(-c3ccc(C(=N)N)cc3)o2)cc1 [Furamidine]
Outgoing: hi

Incoming: Cool, now CCCCN(CCCC)CC(O)c1cc(Cl)cc2c1-c1ccc(Cl)cc1C2=Cc1ccc(Cl)cc1 (stereo unspecified) [Lumefantrine]
Outgoing: mid
